- systemUnderTest: T1, ZFP SBS#569 (synthetic)
- T1 chain: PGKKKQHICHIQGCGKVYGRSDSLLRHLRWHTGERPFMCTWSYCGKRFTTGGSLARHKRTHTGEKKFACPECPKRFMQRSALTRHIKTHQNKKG
- assayProcedure: EMSA
- measurementContext: tags: MBP fusion
observable: Kd (nM)
Report as a plain number; the unit nM is understood.

May I ask what Kd has been recorded for GTAGTTGTG (dsDNA) DNA 1: GTAGTTGTG DNA 2: CACAACTAC ? 52
